Values were extracted from BigSolDB 2.1.

Details: in cyclohexane, 316.25 K

- Smiles Repr: "CC(=O)c1c(O)ccc2ccccc12"
  solubility (mole fraction): 0.0957

* * *

Conditions: in cyclohexane, 308.6 K

- Smiles Repr: "CC(=O)c1ccc2ccccc2c1O"
  solubility (mole fraction): 0.0173

* * *

Conditions: in n-butanol, 318.65 K
Property Name: solubility (mole fraction)

- Smiles Repr: "CC(=O)c1ccc2ccccc2c1O"
  Endpoint Result: 0.0291

* * *

Conditions: in n-heptane, 293.15 K
Property Name: solubility (mole fraction)

- Smiles Repr: "CC(=O)c1c(O)ccc2ccccc12"
  Endpoint Result: 0.0163

* * *

Conditions: in ethanol, 342.25 K
Property Name: solubility (mole fraction)

- Smiles Repr: "CC(=O)c1ccc2ccccc2c1O"
  Property Name: "solubility (mole fraction)"
  Endpoint Result: 0.0696
